assay: Apparent permeability from basolateral to apical side in dog MDCK-MDR1 cells; type: ADME, cell-based, Canis lupus familiaris
Metric name: Papp B→A (×10⁻⁶ cm/s)
Note: unit ×10⁻⁶ cm/s is implicit; provide only the numeric part.

Prompt line: Please report the recorded Papp B→A for `COc1cc(-c2ncc(COc3cccc([C@@H](CC(=O)O)C4CC4)c3)nc2CC(C)C)c(F)cn1` .
Response line: 82

###

experiment: Clearance in rat; format: ADME; settings: in vivo
Metric name: clearance (mL/min/kg)
# unit: mL/min/kg | format: bare number

Prompt line: State the recorded clearance for this entry: `COc1cc(-c2ncc(COc3cccc([C@@H](CC(=O)O)C4CC4)c3)nc2CC(C)C)c(F)cn1`
Response line: 2.37
